Catalogue of compounds with associated MIC
# Test system: Klebsiella pneumoniae
# experimental_protocol: Synergistic antibacterial activity against Klebsiella pneumoniae CAV 1636 producing OXA-181 assessed as meropenem MIC at 4 ug/ml by broth microdilution method
# Type: functional
# protocol_conditions: dose 4 µg/ml

Input line: Recorded MIC for O.O=C(NC1CCNCC1)[C@@H]1CC[C@@H]2CN1C(=O)N2OS(=O)(=O)O , please?
Output line: 16 µg/mL

Input line: Now give it for NC(=O)[C@@H]1CC[C@@H]2CN1C(=O)N2OS(=O)(=O)[O-].[Na+] [AVIBACTAM SODIUM] too.
Output line: 1 µg/mL

Input line: Now give it for O=C(NNC(=O)[C@@H]1CC[C@@H]2CN1C(=O)N2OS(=O)(=O)O)[C@@H]1CCNC1 too.
Output line: ≤ 0.12 µg/mL

Shifting focus to the compound that follows.
Input line: Recorded MIC for N#C[C@@H]1CC[C@@H]2CN1C(=O)N2OS(=O)(=O)[O-].[Na+] , please?
Output line: ≤ 0.12 µg/mL
